experiment: physchem; conditions: ethyl acetate, organic solvent or mixture
PROPERTY LABEL: solubility (µg/mL)
Respond numerically; units are µg/mL and should not be typed.

Lab book: solubility of O=C(O)c1cc(/N=N/c2ccc(S(=O)(=O)Nc3ccccn3)cc2)ccc1O noted as 400

###

test: Solvent solubility screen; format: physicochemical; conditions: dimethylformamide, organic solvent or mixture, thermodynamic from solid; read-out: Approx. Solubility
PROPERTY LABEL: solubility

Lab book: solubility of O=C(O)c1cc(/N=N/c2ccc(S(=O)(=O)Nc3ccccn3)cc2)ccc1O [Sulfasalazine] noted as > 100 mg/mL

###

test: physchem; settings: water
PROPERTY LABEL: solubility (µg/mL)
Respond numerically; units are µg/mL and should not be typed.

Lab book: solubility of O=C(O)c1cc(/N=N/c2ccc(S(=O)(=O)Nc3ccccn3)cc2)ccc1O noted as 400
